Target: Yer184c (UniProt P39961)
Sequence: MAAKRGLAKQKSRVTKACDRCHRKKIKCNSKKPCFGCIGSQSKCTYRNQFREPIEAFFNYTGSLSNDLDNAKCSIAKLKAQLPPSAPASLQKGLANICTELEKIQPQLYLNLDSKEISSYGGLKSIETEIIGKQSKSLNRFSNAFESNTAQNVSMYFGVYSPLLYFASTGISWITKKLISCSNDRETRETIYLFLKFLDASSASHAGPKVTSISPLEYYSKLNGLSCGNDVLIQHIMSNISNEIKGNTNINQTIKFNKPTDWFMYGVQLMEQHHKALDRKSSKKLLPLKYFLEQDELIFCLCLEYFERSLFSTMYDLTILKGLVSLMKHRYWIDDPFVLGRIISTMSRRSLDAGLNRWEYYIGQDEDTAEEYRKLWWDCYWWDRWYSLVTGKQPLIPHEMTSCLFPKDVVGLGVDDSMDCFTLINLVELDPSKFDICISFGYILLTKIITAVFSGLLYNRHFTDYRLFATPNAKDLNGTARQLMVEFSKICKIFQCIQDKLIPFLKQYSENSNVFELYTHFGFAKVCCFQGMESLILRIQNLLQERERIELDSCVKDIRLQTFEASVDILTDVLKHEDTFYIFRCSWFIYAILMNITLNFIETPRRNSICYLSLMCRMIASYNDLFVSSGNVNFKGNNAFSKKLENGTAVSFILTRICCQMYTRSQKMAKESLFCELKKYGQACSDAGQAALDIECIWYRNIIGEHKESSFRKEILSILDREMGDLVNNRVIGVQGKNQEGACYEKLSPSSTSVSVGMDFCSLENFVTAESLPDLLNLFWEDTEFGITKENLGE
Assay: PBM E-score (8-mer binding enrichment) (E-score (-0.5 to 0.5)); higher = stronger / more preferred TF binding
Conditions: protein concentration: 100 nM; construct: GST-full length
Whole data set: some 33,000 sequences, median “E-score (-0.5 to 0.5)” near -0.016, cut for the highest 2% near 0.3. The entries come from a sample that favours the highest values as a whole.
Is PBM E-score at least 0.1? Then Satisfied. If not, Not satisfied.

Query :: Given the entry CACGGACC , answer whether its PBM E-score meets or surpasses 0.1.
Result :: Satisfied

Query :: Okay, and AACGGTTA ?
Result :: Not satisfied

Query :: Okay, and GCCGAGCA ?
Result :: Satisfied

Query :: Okay, and CCGAGCGC ?
Result :: Satisfied

Query :: Okay, and GGGTTAAA ?
Result :: Not satisfied

Query :: Okay, and ACCGAGAC ?
Result :: Not satisfied

Query :: Okay, and GTCTCATA ?
Result :: Not satisfied

Query :: Okay, and AGTGAGCA ?
Result :: Not satisfied

Query :: Okay, and GTCGAGAA ?
Result :: Not satisfied

Query :: Okay, and CCGGGATA ?
Result :: Satisfied

Query :: Okay, and TAATTATA ?
Result :: Satisfied

Query :: Okay, and GTAGGTTA ?
Result :: Not satisfied

Query :: Okay, and ATTGAGCG ?
Result :: Not satisfied

Query :: Okay, and GCCGAGAA ?
Result :: Satisfied

Query :: Okay, and CGGAGCGC ?
Result :: Satisfied

Query :: Okay, and CCCGGATA ?
Result :: Satisfied

Query :: Okay, and CAAGCCTC ?
Result :: Not satisfied

Query :: Okay, and ACGGCAGC ?
Result :: Satisfied

Query :: Okay, and GAATTATA ?
Result :: Satisfied

Query :: Okay, and ACCGAGAA ?
Result :: Satisfied

Query :: Okay, and CCGGGATC ?
Result :: Satisfied

Query :: Okay, and GATTCGGA ?
Result :: Satisfied

Query :: Okay, and GATTCGCA ?
Result :: Satisfied

Query :: Okay, and GCCAGATA ?
Result :: Not satisfied

Query :: Okay, and CGCTTTAC ?
Result :: Not satisfied

Query :: Okay, and AAGGGGAC ?
Result :: Not satisfied

Query :: Okay, and GATTGAGC ?
Result :: Satisfied

Query :: Okay, and CCCTACCC ?
Result :: Not satisfied

Query :: Okay, and CCCGAGAC ?
Result :: Not satisfied

Query :: Okay, and CACTGTCC ?
Result :: Not satisfied

Query :: Okay, and CCGGGACC ?
Result :: Satisfied

Query :: Okay, and GGTGGGAC ?
Result :: Not satisfied

Query :: Okay, and CGGAGTGA ?
Result :: Satisfied

Query :: Okay, and CGACCACA ?
Result :: Not satisfied

Query :: Okay, and TATTCGGA ?
Result :: Satisfied

Query :: Okay, and CGCCATGA ?
Result :: Not satisfied

Query :: Okay, and GCCGAGTA ?
Result :: Satisfied

Query :: Okay, and AAGAGCAA ?
Result :: Not satisfied

Query :: Okay, and GCTAGGAA ?
Result :: Not satisfied

Query :: Okay, and CGGAGCGA ?
Result :: Satisfied

Query :: Okay, and CCCATTCC ?
Result :: Not satisfied

Query :: Okay, and CGGTTCGC ?
Result :: Not satisfied

Query :: Okay, and AGGAGCGA ?
Result :: Not satisfied

Query :: Okay, and CACGGCCA ?
Result :: Satisfied

Query :: Okay, and TATTCGCA ?
Result :: Not satisfied

----------
So I've got a bunch of sequences here, and I need their PBM E-score values.
Molecular target: Yer184c (UniProt P39961)
Sequence: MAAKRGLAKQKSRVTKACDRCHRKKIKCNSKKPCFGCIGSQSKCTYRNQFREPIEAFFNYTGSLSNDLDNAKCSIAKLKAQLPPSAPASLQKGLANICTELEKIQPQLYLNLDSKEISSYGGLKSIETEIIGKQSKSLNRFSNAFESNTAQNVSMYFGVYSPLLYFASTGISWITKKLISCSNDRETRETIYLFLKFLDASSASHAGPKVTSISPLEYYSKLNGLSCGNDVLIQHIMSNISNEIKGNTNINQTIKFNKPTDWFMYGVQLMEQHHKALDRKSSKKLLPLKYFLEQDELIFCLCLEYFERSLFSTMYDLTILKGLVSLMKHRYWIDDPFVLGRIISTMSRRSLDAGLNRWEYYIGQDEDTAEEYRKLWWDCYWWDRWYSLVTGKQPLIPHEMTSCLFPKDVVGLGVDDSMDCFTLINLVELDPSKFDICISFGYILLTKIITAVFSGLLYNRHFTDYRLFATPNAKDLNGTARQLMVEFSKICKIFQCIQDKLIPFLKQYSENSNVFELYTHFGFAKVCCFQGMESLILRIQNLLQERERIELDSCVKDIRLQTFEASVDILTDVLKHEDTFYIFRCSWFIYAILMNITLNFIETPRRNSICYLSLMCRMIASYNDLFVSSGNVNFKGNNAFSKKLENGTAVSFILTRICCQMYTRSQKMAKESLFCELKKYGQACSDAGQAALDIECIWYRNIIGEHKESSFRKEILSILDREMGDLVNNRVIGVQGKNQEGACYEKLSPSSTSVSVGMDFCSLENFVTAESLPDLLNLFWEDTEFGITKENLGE
Experiment: PBM E-score (8-mer binding enrichment) (E-score (-0.5 to 0.5)); higher = stronger / more preferred TF binding
Conditions: protein concentration: 100 nM; construct: GST-full length
Over roughly 33,000 sequences, “E-score (-0.5 to 0.5)” has its median near -0.016; the highest 2% begin near 0.3. Many of the other results were omitted from the sample, so the highest values are more common in it than they were.

Query :: Item AAGGCTTC has what recorded PBM E-score?
Result :: -0.0592

Query :: Okay, and AGTCTGAG ?
Result :: -0.14

Query :: Okay, and CCTTGCCA ?
Result :: -0.0398

Query :: Okay, and AATTCGGG ?
Result :: 0.103

Query :: Okay, and AATTCGGT ?
Result :: 0.301

Query :: Okay, and CTATATAA ?
Result :: 0.0877

Query :: Okay, and GCCGGTAC ?
Result :: 0.229

Query :: Okay, and CATTCGGC ?
Result :: 0.269

Query :: Okay, and CGTTCGGC ?
Result :: 0.27

Query :: Okay, and GTCACTTA ?
Result :: 0.122

Query :: Okay, and CCCGGTAA ?
Result :: 0.221

Query :: Okay, and GCCGGTAA ?
Result :: 0.346

Query :: Okay, and CTCAAAGC ?
Result :: 0.114

Query :: Okay, and GTAAGCGA ?
Result :: 0.00236

Query :: Okay, and CATCGCAG ?
Result :: -0.28

Query :: Okay, and CATTCGGG ?
Result :: 0.141

Query :: Okay, and TCCGGTAA ?
Result :: 0.387

Query :: Okay, and AATTCGGC ?
Result :: 0.24

Query :: Okay, and ACTCGCCG ?
Result :: 0.131

Query :: Okay, and CCCGACTC ?
Result :: -0.0899

Query :: Okay, and ATTGGTAG ?
Result :: -0.0488

Query :: Okay, and ATATATAA ?
Result :: 0.339

Query :: Okay, and AATTCGGA ?
Result :: 0.343
